target-system: Multimetal Binding Site (MBS) of Human Serum Albumin (HSA) (Homo sapiens, UniProt P02768)
Construct: purchased Sigma
Sequence (P02768 25-609): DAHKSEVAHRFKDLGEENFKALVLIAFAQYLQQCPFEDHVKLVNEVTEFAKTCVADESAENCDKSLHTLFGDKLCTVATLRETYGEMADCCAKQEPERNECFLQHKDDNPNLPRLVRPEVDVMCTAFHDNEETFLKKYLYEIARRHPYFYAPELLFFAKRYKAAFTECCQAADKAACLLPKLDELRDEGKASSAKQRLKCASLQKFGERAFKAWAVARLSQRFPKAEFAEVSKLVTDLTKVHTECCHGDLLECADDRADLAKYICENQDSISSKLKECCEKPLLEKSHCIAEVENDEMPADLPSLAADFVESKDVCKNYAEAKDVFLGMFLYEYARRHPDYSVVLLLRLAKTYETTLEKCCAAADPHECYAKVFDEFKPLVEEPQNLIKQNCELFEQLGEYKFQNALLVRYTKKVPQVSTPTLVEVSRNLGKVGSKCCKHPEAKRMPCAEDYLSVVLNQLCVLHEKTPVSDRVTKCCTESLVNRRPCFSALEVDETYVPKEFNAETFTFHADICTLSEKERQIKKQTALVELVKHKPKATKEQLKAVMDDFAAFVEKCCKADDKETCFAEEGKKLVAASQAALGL
assay-info: Visible-range CD titration of Cu(II) binding at MBS of HSA
experimental-parameters: [L] = 100 mM; Cu(II) and Z = 1 μM, HSA = 0.5 mM, pH 7.4
reported-metric: CI (competitivity index)

| compound | CI (competitivity index) |
| --- | --- |
| O=S(=O)(O)CCN1CCN(CCO)CC1 | 9.27 |
| O=P(O)(O)O [Phosphate, sodium phosphate] | 10.13 |
| NC(CO)(CO)CO [Tris, 2-amino-2(hydroxymethyl)-1,3-propanediol] | 9.42 |
| [Cl-].[Na+] | 7.62 |

Attribution: paper PMC2864911
